- assayed-system: Factor X, P00742
- Sequence (P00742 whole entry, looked up): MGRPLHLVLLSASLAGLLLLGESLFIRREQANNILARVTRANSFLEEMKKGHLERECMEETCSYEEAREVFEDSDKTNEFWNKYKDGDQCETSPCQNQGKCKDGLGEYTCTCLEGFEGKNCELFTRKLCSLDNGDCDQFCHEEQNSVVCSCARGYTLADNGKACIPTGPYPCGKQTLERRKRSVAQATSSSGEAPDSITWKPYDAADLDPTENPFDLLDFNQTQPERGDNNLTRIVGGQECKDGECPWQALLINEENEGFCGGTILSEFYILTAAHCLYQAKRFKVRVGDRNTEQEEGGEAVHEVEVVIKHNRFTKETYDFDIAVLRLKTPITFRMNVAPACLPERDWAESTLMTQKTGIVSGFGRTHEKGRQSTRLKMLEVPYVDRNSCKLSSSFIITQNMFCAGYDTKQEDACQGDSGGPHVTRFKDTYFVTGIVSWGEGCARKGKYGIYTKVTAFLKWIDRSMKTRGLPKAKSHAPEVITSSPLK
assay-endpoint: KM (µM)
One number for each entry, in µM.

Name the recorded KM for FIXa-D104N/K106S/R318Y/R338E/E410N (protein) chain 1: YNSGKLEEFVQGNLERECMEEKCSFEEAREVFENTERTTEFWKQYVDGDQCESNPCLNGGSCKDDINSYECWCPFGFEGKNCELDVTCNIKNGRCEQFCKNSANNSVVCSCTEGYRLAENQKSCEPAVPFPCGRVSVSQTSKLTR chain 2: VVGGEDAKPGQFPWQVVLNGKVDAFCGGSIVNEKWIVTAAHCVETGVKITVVAGEHNIEETEHTEQKRNVIRIIPHHNYNAAINKYNHDIALLELDEPLVLNSYVTPICIADKEYTNIFLKFGSGYVSGWGRVFHKGYSALVLQYLRVPLVDRATCLESTKFTIYNNMFCAGFHEGGRDSCQGDSGGPHVTEVEGTSFLTGIISWGEECAMKGKYGIYTKVSRYVNWIKNKTKLT .
0.0189
